Entry source: the supplement of paper PMC10201428

relative integration efficiency (log2) values, listed per item
Test system: VchCAST RNA-guided transposition machinery (E. coli BL21(DE3) host, lacZ target)
Assay: relative integration efficiency (T-LR orientation) vs wild-type transposon end (log2 (normalized fold change)); transposon end mutated: left end; higher = more efficient transposition
Observable: relative integration efficiency (log2)

{"Sequence Record": "AATGTTGTTGATGCAACCATAAAGTGATATTTAATAATTATTTATAATCAGCAACTTAACCACAAAACAACCATATATTGATATCTCACAAAACACAACGCCTGGTCGCGGGGGTGTCCGATCTGATTTCAGCAAAACTACTGCAGTAAGAA", "Observable": "relative integration efficiency (log2)", "Recorded Value": -0.789}
{"Sequence Record": "AATGTTGTTGATGCAACCATAAAGTGATATTTAATACGGCGGGCGCCGACTACCAGGCCAACACCCCACCAACGCGCGGTCGCGAGACACCCCACCAACGCCTGGTCGCGGGGGTGTCCGATCTGATTTCAGCAAAACTACTGCAGTAAGAA", "Observable": "relative integration efficiency (log2)", "Recorded Value": -4.75}
{"Sequence Record": "AATGTTGTTGATGCAACCATAAAGTGATATTTAATAACTTCGTATAAGGTATACTATACGAAGTTATCAACCATATATTGATATCTCACAAAACAACCATAAGTTGATATTTTTGTGAATCGAGTATTTCAGCAAAACTACTGCAGTAAGAA", "Observable": "relative integration efficiency (log2)", "Recorded Value": -3.52}
{"Sequence Record": "AATGTTGTTGATGCAACCATAAAGTGATATTTAATAATTATTTCGCCGACTACCAGGCCAACACCCCACCAACGCGCGGTCGCGAGACACCCCACCAACGCCTGGTCGCGGGGGTGTCCGATCTGATTTCAGCAAAACTACTGCAGTAAGAA", "Observable": "relative integration efficiency (log2)", "Recorded Value": -6.08}
